- ASSAY NAME: qHTS for Inhibitors of human tyrosyl-DNA phosphodiesterase 1 (TDP1): qHTS in cells in absence of CPT; also: nearly all actives have a fitted effect of over 55% in size
- STATED CONDITIONS: DT40 Tdp1-/- hTDP1 cells, no CPT, ATP luminescence, 48 h
About 64,000 (15%) of roughly 420,000 compounds were called active. Inconclusive results (about 27%) are left out. Calls follow the shape of the dose curve; as a rule, active = well fitted inhibition curve with a large enough effect; inconclusive = small, poorly fitted or top-dose-only effect; inactive = flat fitted curve, though single readings scatter. Not all results are given here.
Could you please pick one outcome from this set? active, inactive

Check the results log: what was the call for COc1cccc2cc(C(C)N(CCCN3CCOCC3)C(=O)Nc3ccc(Cl)cc3)oc12 (stereo not drawn) ?
active

Check the results log: what was the call for COc1ccc(C2CC(c3ccc(C)cc3)Nc3nc(N)nn32)cc1 (stereo not drawn) ?
inactive

Check the results log: what was the call for O=C(O)CCN1C(=O)CC2(CCCCC2)C1=O ?
inactive

Check the results log: what was the call for CCCCN(C=O)c1c(CC)nc2c(OCCC3CCCCC3)cccn12 ?
active

Check the results log: what was the call for Cc1ccc(O)c(NC(=O)CCS(=O)(=O)c2nc(-c3ccc4c(c3)OCO4)cc(C(F)(F)F)n2)c1 ?
active

Check the results log: what was the call for COCCCNC(=O)c1c(F)c(F)c(F)c(F)c1F ?
inactive

Check the results log: what was the call for CCCCN(C)Cc1c(C)[nH]c2ccc(Cl)cc2c1=O ?
inactive

Check the results log: what was the call for O=C(Nc1ccc(C(=O)NCc2ccccc2Cl)cc1)C1=CSCCO1 ?
inactive

Check the results log: what was the call for O=C(CN1C(=O)CSC1=O)N1CCCC(Nc2ccc(F)cc2)C1 (stereo not drawn) ?
inactive

Check the results log: what was the call for COc1cc(NC(=O)c2cc(-c3ccc(F)cc3OC(C)C)n[nH]2)cc(OC)c1OC ?
active

Check the results log: what was the call for O=C1c2ccccc2C(c2nc3ccccc3[nH]2)N1c1ccccc1 (stereo not drawn) ?
inactive

Check the results log: what was the call for O=C(Nc1cc(C(F)(F)F)ccc1Cl)c1cc2nc(-c3ccc4c(c3)OCO4)cc(C(F)(F)F)n2n1 ?
inactive

Check the results log: what was the call for CCCCOc1ccc(-c2ncc(C(=O)OCC)c(N)n2)cc1 ?
inactive

Check the results log: what was the call for CC1Cc2ccccc2N1CC(=O)Nc1ccc(S(N)(=O)=O)cc1 (stereo not drawn) ?
inactive

Check the results log: what was the call for NC(=O)N1CCc2ccccc21 ?
inactive

Check the results log: what was the call for O=C1OCC2=C1C(c1ccccc1)CC(=O)N2c1cccc(F)c1 (stereo not drawn) ?
inactive

Check the results log: what was the call for COc1cc(NC(=O)CCn2nc(C)cc2C)cc(OC)c1OC ?
inactive

Check the results log: what was the call for CSCCC(Nc1ccc(S(=O)(=O)N2CCOCC2)cc1[N+](=O)[O-])C(=O)OCC(=O)N(C(C)C)C(C)C (stereo not drawn) ?
inactive

Check the results log: what was the call for CN(C)c1cccc2ccccc12 ?
inactive

Check the results log: what was the call for Cc1ccc(NC(=O)CN(C)C(=O)c2ccc(Cl)c(S(=O)(=O)NCc3ccco3)c2)cc1 ?
inactive

Check the results log: what was the call for Cn1c(=O)oc2cc(S(=O)(=O)CCC(=O)NCCc3ccc(Cl)cc3)ccc21 ?
inactive

Check the results log: what was the call for Cc1cc2nc(C(F)(F)F)cc(-c3cccs3)n2n1 ?
inactive

Check the results log: what was the call for CCOc1ccc(NC(=O)CCS(=O)(=O)c2ccc3c(c2)CCCN3C(=O)CC)cc1 ?
inactive

Check the results log: what was the call for CC(C)(C)NC(=O)NCc1ccco1 ?
inactive

Check the results log: what was the call for CCc1nc2c(OCCC3CCCCC3)cccn2c1N(C)C(=O)c1ccco1 ?
active

Check the results log: what was the call for CCC1([N+](=O)[O-])COC(c2ccc(C)cc2)OC1 (stereo not drawn) ?
inactive

Check the results log: what was the call for CCOc1ccccc1C1C(C(=O)OC)=CN(C)C=C1C(=O)OC ?
inactive

Check the results log: what was the call for CCOc1ccccc1C1CC(c2ccc(Cl)cc2)Nc2nc(N)nn21 (stereo not drawn) ?
active
